# measurement-target: L-type calcium channel (Rattus norvegicus)
# Construct: membrane fragments of rat cardiac muscle; from tissue; host or cells: rat cardiac muscle membranes
# Sequence (P22002 whole entry, other chains not shown, the tested form may be a part): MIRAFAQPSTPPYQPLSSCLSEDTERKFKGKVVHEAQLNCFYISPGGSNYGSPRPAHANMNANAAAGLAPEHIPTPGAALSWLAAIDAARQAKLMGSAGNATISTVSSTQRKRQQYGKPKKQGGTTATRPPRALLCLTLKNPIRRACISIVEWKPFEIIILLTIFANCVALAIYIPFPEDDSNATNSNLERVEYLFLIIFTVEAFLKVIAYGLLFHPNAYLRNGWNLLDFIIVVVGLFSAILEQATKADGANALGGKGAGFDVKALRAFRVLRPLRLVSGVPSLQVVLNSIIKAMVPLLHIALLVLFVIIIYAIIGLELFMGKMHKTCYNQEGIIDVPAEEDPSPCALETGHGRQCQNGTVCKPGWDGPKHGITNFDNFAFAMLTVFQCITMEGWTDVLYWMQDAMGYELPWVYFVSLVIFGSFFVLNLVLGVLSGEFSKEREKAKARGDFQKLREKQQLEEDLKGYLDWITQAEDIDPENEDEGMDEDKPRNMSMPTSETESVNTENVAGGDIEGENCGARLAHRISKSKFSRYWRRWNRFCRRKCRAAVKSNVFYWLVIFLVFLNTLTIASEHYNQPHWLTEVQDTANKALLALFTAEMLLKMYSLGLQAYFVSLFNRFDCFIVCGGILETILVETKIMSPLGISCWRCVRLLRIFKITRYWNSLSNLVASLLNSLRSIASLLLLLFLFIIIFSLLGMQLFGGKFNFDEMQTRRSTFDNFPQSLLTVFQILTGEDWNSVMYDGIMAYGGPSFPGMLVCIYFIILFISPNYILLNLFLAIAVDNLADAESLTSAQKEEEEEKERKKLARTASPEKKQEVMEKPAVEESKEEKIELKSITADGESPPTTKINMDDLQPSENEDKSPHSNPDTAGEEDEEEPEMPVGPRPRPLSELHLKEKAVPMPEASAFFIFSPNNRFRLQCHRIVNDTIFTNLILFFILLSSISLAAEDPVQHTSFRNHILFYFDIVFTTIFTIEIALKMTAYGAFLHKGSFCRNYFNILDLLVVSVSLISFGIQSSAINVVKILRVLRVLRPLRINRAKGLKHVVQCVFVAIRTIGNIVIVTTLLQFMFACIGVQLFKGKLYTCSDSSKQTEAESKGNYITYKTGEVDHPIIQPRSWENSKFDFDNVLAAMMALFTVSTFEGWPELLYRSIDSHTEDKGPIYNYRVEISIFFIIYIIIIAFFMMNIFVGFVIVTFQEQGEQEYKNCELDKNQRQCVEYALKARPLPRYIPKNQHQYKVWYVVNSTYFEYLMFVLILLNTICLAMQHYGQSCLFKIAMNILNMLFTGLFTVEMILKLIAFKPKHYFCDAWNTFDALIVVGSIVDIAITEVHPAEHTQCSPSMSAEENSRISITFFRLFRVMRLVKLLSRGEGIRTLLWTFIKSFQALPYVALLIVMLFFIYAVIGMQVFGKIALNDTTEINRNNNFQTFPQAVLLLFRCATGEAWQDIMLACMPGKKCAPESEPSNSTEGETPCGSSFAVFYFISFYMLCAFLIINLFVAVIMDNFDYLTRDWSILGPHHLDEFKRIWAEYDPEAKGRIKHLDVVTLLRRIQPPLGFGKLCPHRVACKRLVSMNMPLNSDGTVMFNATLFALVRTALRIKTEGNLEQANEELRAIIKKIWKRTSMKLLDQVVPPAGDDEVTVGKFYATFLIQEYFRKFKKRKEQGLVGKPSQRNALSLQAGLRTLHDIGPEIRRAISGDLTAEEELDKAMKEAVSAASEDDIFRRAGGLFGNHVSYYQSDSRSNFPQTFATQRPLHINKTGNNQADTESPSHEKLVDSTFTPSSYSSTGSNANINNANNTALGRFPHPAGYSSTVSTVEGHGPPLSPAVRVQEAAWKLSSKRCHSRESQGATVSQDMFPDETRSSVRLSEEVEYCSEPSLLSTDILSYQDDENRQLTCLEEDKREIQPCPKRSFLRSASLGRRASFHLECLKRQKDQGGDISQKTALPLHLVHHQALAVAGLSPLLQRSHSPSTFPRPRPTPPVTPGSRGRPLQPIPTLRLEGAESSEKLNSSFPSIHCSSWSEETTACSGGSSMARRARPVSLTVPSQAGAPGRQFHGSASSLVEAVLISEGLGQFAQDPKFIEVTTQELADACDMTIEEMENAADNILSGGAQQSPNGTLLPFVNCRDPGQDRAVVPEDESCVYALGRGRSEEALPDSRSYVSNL
# Sequence (P54290 25-944 partner limits assumed, other chains not shown): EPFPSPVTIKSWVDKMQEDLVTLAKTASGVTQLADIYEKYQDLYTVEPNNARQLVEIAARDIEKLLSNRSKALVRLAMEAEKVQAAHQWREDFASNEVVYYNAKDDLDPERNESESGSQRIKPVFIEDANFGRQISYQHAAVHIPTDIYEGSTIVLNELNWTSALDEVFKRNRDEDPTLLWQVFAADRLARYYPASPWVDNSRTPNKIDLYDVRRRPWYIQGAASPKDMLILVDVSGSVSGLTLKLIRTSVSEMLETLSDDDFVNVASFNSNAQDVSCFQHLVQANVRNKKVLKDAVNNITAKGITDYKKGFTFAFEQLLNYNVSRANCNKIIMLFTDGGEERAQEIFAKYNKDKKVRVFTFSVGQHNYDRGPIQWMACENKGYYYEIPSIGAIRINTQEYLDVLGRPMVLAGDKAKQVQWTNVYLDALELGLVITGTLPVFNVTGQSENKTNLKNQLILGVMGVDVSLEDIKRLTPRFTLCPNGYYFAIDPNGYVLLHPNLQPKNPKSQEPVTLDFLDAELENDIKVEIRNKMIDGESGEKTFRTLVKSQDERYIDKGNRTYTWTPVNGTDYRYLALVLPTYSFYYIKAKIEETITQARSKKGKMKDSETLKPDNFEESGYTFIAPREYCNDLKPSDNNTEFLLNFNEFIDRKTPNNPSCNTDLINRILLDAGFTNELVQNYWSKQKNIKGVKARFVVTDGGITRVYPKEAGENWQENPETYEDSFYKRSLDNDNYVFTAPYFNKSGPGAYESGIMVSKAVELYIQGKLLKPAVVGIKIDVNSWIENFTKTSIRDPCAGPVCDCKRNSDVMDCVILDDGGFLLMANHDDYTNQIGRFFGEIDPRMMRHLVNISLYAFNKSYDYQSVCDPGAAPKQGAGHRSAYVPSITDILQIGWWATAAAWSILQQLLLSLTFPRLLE
# Sequence (P54290 945-1091 partner limits assumed, other chains not shown): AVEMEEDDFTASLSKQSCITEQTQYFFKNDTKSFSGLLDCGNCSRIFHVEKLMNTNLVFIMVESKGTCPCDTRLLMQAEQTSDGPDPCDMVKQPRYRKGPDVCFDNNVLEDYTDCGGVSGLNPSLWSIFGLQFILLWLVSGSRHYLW
# measurement-protocol: Competition binding of [3H]nitrendipine to membrane fragments of rat cardiac muscle
# condition-details: [3H]nitrendipine, rat cardiac muscle membranes; mean; read-out: PKi Ca (converted)

| compound | units-label | Ki |
| --- | --- | --- |
| CCC1=C(C(=O)O)C(c2ccc([N+](=O)[O-])cc2)C(C(=O)NCCCN2CCC(C#N)(c3ccccc3)CC2)=C(COC)N1 (stereo not drawn) [Example 222] | µM | 282 |
| CCC1=C(C(=O)NC)C(c2ccc([N+](=O)[O-])cc2)C(C(=O)NCCCN2CCC(C(=O)OC)(c3ccccc3)CC2)=C(COCCN)N1 (stereo not drawn) [Example 229] | µM | 100 |
| CCC1=C(C(N)=O)C(c2ccc([N+](=O)[O-])cc2)C(C(=O)NCCCN2CCC(c3ccccc3)(c3ccccc3)CC2)=C(CCCCN)N1 (stereo not drawn) [Example 171] | µM | 18.6 |

----------
# measurement-target: α1A Human Adrenergic Receptor (Homo sapiens)
# Construct: The entire coding region of α1A (1719 bp); expressed in transfected cells
# measurement-protocol: Radioligand binding, [3H]prazosin, cloned human α1A adrenergic receptor
# condition-details: pKi alpha-1 1a, [3H]prazosin, cloned human α1A receptor, LM(tk−) cell membranes
pKi: −log10 of the molar value. Counter-ions that a name gives are not always drawn.
Would you please tag the item met when its pKi is 6 or above, and not met when it is below?

| compound | measurement-target | assigned-label |
| --- | --- | --- |
| CCC1=C(C(N)=O)C(c2ccc(S(C)(=O)=O)cc2)C(C(=O)NCCCN2CCC(c3ccccc3)(c3ccccc3)CC2)=C(C)N1 (stereo not drawn) | α1A Human Adrenergic Receptor (Homo sapiens) | not met |
| CCC1=C(C(N)=O)C(c2ccc([N+](=O)[O-])cc2)C(C(=O)NCCCN2CCC(O)(c3ccccc3)CC2)=C(CC)N1 (stereo not drawn) [Example 100, hydrochloride hydrate] | α1A Human Adrenergic Receptor (Homo sapiens) | not met |
| CCC1=C(C(=O)NCCCN2CCC(c3ccccc3)(c3ccccc3)CC2)C(c2cccc(OC)c2)C(C(=O)NCCCN2CCC(c3ccccc3)(c3ccccc3)CC2)=C(CC)N1 | α1A Human Adrenergic Receptor (Homo sapiens) | met |
| CCC1=C(C(N)=O)C(c2ccc([N+](=O)[O-])cc2)C(C(=O)NCCCN2CCC(C#N)(c3ccccc3)CC2)=C(CC)N1 (racemic) [(±)-102, hydrochloride hydrate] | α1A Human Adrenergic Receptor (Homo sapiens) | not met |
| CCC1=C(C(=O)NCCCN2CCC(c3ccccc3)(c3ccccc3)CC2)C(c2ccc([N+](=O)[O-])cc2)C(C(N)=O)=C(COCCN=[N+]=[N-])N1 (stereo not drawn) | α1A Human Adrenergic Receptor (Homo sapiens) | met |
| CCC1=C(C(=O)NCCCN2CCC(c3ccccc3)(c3ccccc3)CC2)C(c2ccc([N+](=O)[O-])cc2)C(C(=O)NC)=C(COCCN=[N+]=[N-])N1 (stereo not drawn) | α1A Human Adrenergic Receptor (Homo sapiens) | met |

----------
# measurement-target: α1C Human Adrenergic Receptor (Homo sapiens, UniProt P35348)
# Construct: The entire coding region of α1C (1401 bp); expressed in transfected cells
# Sequence (P35348 whole entry): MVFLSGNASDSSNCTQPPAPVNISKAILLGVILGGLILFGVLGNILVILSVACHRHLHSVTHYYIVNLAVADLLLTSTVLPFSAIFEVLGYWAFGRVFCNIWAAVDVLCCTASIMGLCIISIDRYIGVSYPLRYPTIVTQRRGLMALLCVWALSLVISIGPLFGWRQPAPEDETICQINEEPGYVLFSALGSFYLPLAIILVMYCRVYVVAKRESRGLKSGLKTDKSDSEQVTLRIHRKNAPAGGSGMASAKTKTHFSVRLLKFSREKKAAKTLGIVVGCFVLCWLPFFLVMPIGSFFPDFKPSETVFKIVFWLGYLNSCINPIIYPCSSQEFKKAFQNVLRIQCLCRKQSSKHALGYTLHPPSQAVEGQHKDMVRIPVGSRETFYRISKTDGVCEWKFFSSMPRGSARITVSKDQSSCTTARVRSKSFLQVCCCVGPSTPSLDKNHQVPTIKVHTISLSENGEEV
# measurement-protocol: Radioligand binding, [3H]prazosin, cloned human α1C adrenergic receptor
# condition-details: pKi alpha-1 1c, cloned human α1C receptor, LM(tk−) cell membranes
pKi: −log10 of the molar value. Where a name gives a salt, the structure may show the parent alone.
# pKi per record follows

| compound | measurement-target | pKi |
| --- | --- | --- |
| CC(C)C1=C(C(N)=O)C(c2ccc([N+](=O)[O-])cc2)C(C(=O)NCCCN2CCC(c3ccccc3)(c3ccccc3)CC2)=C(C(C)C)N1 (stereo not shown) [Example 127] | α1C Human Adrenergic Receptor (Homo sapiens, UniProt P35348) | 7.26 |
| CNC(=O)C1=C(C)NC(C)=C(C(=O)NCCCN2CCC(O)(c3ccccc3)CC2)C1c1ccc([N+](=O)[O-])cc1 (stereo not shown) [Example 162] | α1C Human Adrenergic Receptor (Homo sapiens, UniProt P35348) | 7.94 |
| CCC1=C(C(N)=O)C(c2ccc([N+](=O)[O-])cc2)C(C(=O)NCCCN2CCC(C#N)(c3ccccc3)CC2)=C(CC)N1 (single isomer, unassigned; (+)) [(+)-102] | α1C Human Adrenergic Receptor (Homo sapiens, UniProt P35348) | 8.58 |
| CCC1=C(C(N)=O)C(c2ccc([N+](=O)[O-])cc2)C(C(=O)NCCCN2CCC(O)(c3ccccc3)CC2)=C(CC)N1 (stereo not shown) [Example 100, hydrochloride hydrate] | α1C Human Adrenergic Receptor (Homo sapiens, UniProt P35348) | 8.36 |
| CCC1=C(C(N)=O)C(c2ccc(S(C)(=O)=O)cc2)C(C(=O)NCCCN2CCC(c3ccccc3)(c3ccccc3)CC2)=C(CC)N1 (stereo not shown) [Example 116] | α1C Human Adrenergic Receptor (Homo sapiens, UniProt P35348) | 8.41 |
| CCC1=C(C(N)=O)C(c2ccc([N+](=O)[O-])cc2)C(C(=O)NCCCN2CCC(C#N)(c3ccccc3)CC2)=C(CC)N1 (racemic) [(±)-102, hydrochloride hydrate] | α1C Human Adrenergic Receptor (Homo sapiens, UniProt P35348) | 8.42 |
| CCNC(=O)C1=C(COCCN=[N+]=[N-])NC(CC)=C(C(=O)NCCCN2CCC(c3ccccc3)(c3ccccc3)CC2)C1c1ccc([N+](=O)[O-])cc1 (stereo not shown) [Example 147] | α1C Human Adrenergic Receptor (Homo sapiens, UniProt P35348) | 7.96 |
| CCC1=C(C(N)=O)C(c2ccc([N+](=O)[O-])cc2)C(C(=O)NCCCN2CCC(C)(c3ccccc3)CC2)=C(CC)N1 (stereo not shown) [Example 106, hydrochloride hydrate] | α1C Human Adrenergic Receptor (Homo sapiens, UniProt P35348) | 7.82 |
| CC1=C(C(=O)NCCCN2CCC(c3ccccc3)(c3ccccc3)CC2)C(c2ccc([N+](=O)[O-])cc2)C(C(=O)NC(C)C)=C(C)N1 (stereo not shown) [Example 156] | α1C Human Adrenergic Receptor (Homo sapiens, UniProt P35348) | 7.02 |
| CCNC(=O)C1=C(CC)NC(CC)=C(C(=O)NCCCN2CCC(c3ccccc3)(c3ccccc3)CC2)C1c1ccc([N+](=O)[O-])cc1 (stereo not shown) [Example 129] | α1C Human Adrenergic Receptor (Homo sapiens, UniProt P35348) | 8.43 |
| COc1ccc(C2(c3ccccc3)CCN(CCCNC(=O)C3=C(C)NC(C)=C(C(N)=O)C3c3ccc([N+](=O)[O-])cc3)CC2)cc1 (stereo not shown) [Example 98, hydrochloride] | α1C Human Adrenergic Receptor (Homo sapiens, UniProt P35348) | 8.32 |
| CCC1=C(C(N)=O)C(c2ccc([N+](=O)[O-])cc2)C(C(=O)NCCCN2CCC(C#N)(c3ccccc3)CC2)=C(CC)N1 (single isomer, unassigned; (-)) [(−)-102] | α1C Human Adrenergic Receptor (Homo sapiens, UniProt P35348) | 6.95 |
| CCC1=C(C(=O)OCCC#N)C(c2ccc([N+](=O)[O-])cc2)C(C(=O)NCCCN2CCC(c3ccccc3)(c3ccccc3)CC2)=C(COCCN=[N+]=[N-])N1 (stereo not shown) [Example 141] | α1C Human Adrenergic Receptor (Homo sapiens, UniProt P35348) | 8.27 |

----------
# measurement-target: α1A Human Adrenergic Receptor (Homo sapiens, UniProt P25100)
# Construct: The entire coding region of α1A (1719 bp); expressed in transfected cells
# Sequence (P25100 whole entry): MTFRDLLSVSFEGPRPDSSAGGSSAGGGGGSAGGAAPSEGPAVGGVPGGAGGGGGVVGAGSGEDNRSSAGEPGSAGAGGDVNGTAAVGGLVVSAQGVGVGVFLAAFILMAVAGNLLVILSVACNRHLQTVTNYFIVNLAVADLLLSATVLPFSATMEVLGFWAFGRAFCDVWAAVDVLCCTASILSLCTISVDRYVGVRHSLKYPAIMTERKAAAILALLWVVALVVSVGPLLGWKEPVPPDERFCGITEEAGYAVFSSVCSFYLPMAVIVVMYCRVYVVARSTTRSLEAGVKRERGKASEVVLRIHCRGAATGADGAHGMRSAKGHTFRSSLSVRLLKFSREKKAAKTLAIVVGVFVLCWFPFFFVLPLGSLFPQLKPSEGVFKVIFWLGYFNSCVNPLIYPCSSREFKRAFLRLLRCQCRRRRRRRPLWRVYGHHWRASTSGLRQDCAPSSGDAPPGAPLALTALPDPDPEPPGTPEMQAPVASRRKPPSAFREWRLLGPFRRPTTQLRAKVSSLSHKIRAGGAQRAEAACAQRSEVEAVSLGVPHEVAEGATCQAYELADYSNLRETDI
# measurement-protocol: Radioligand binding, [3H]prazosin, cloned human α1A adrenergic receptor
# condition-details: PKi alpha-1 1a, [3H]prazosin, cloned human α1A receptor, LM(tk-) cell membranes
Ki reference

| compound | measurement-target | units-label | Ki |
| --- | --- | --- | --- |
| CCC1=C(C(=O)OCCO)C(c2ccc([N+](=O)[O-])cc2)C(C(=O)NCCCN2CCC(c3ccccc3)(c3ccccc3)CC2)=C(COC)N1 (stereo not shown) [Example 246] | α1A Human Adrenergic Receptor (Homo sapiens, UniProt P25100) | nM | 316 |
| CC(=O)C1=C(C)NC(COCCN)=C(C(=O)NCCCN2CCC(c3ccccc3)(c3ccccc3)CC2)C1c1ccc(F)cc1 (stereo not shown) [Example 242] | α1A Human Adrenergic Receptor (Homo sapiens, UniProt P25100) | nM | 224 |
| CCC1=C(C(=O)NCCOC)C(c2ccc([N+](=O)[O-])cc2)C(C(=O)NCCCN2CCC(c3ccccc3)(c3ccccc3)CC2)=C(COC)N1 (stereo not shown) [Example 247] | α1A Human Adrenergic Receptor (Homo sapiens, UniProt P25100) | nM | 977 |
| CC(=O)C1=C(C)NC(COCCN)=C(C(=O)NCCCN2CCC(c3ccccc3)(c3ccccc3)CC2)C1c1ccc2c(c1)OCO2 (stereo not shown) [Example 239] | α1A Human Adrenergic Receptor (Homo sapiens, UniProt P25100) | nM | 275 |
